Biological target: human CB2 receptor (Homo sapiens)
Construct: host or cells: CHO-K1
Sequence (P34972 whole entry): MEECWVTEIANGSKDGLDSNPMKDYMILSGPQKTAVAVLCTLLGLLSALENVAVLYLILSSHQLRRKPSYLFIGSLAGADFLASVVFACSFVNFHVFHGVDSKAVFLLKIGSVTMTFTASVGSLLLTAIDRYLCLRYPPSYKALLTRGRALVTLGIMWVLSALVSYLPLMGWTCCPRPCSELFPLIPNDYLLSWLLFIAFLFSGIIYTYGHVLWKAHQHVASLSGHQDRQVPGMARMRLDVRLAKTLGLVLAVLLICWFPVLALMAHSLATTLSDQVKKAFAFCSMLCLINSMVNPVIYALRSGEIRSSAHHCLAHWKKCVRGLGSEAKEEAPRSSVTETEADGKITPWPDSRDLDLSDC
Test: CB2 radioligand competitive binding assay ([3H]CP 55,940 displacement)
Details: fold difference in selectivity between CB1 and CB2 binding, printed in the column of the receptor with higher affinity; 1.00 = about the same affinity
Would you mind labelling by Selectivity CB2? At or over 5 fold is 1.0, under is 0.0.

| compound | label.class |
| --- | --- |
| CCCCCc1cc2c(c(O)c1-c1cc3ccccc3o1)[C@@H]1C=C(C)CC[C@H]1C(C)(C)O2 [Compound 34b] | 0.0 |
| CCCCCc1cc2c(c(O)c1-c1cncs1)[C@@H]1C=C(C)CC[C@H]1C(C)(C)O2 [Compound 18b] | 0.0 |
| CCCCCc1cc2c(c(O)c1-c1ccco1)[C@@H]1C=C(C)CC[C@H]1C(C)(C)O2 [Compound 15b] | 0.0 |
| CCCCCc1cc2c(c(O)c1-c1ccncc1)[C@@H]1C=C(C)CC[C@H]1C(C)(C)O2 [Compound 14b] | 0.0 |
| CCCCCc1cc2c(c(O)c1-c1cc3ccccc3s1)[C@@H]1C=C(C)CC[C@H]1C(C)(C)O2 [Compound 36b] | 1.0 |

###

Recorded Selectivity CB2 for the following compounds
Molecular target: human CB2 receptor (Homo sapiens)
Construct: host or cells: CHO-K1
Assay: CB2 radioligand competitive binding assay ([3H]CP 55,940 displacement)
Conditions: fold difference in selectivity between CB1 and CB2 binding, printed in the column of the receptor with higher affinity; 1.00 = about the same affinity
Method: Compounds of the present disclosure were tested for CB1 receptor binding affinity and for CB2 receptor binding affinity. As used herein, “binding affinity” is represented by the IC50 value, which was experimentally determined as described herein. The lower the IC50 value the higher the binding affinity. A compound of the present disclosure may be said to have “binding selectivity” if it has a higher binding affinity for one receptor compared to the other. […]

| compound | units.label | Selectivity CB2 |
| --- | --- | --- |
| CCCCCc1cc2c(c(O)c1-c1cn[nH]c1)[C@@H]1C=C(C)CC[C@H]1C(C)(C)O2 [Compound 35b] | fold | 2.64 |
| CCCCCc1cc2c(c(O)c1-c1ccnn1C)[C@@H]1C=C(C)CC[C@H]1C(C)(C)O2 [Compound 33b] | fold | 1.61 |
| CCCCCc1cc2c(c(O)c1-c1cccnc1)[C@@H]1C=C(C)CC[C@H]1C(C)(C)O2 [Compound 12b] | fold | 1.57 |
| CCCCCc1cc2c(c(O)c1-c1ccsc1)[C@@H]1C=C(C)CC[C@H]1C(C)(C)O2 [Compound 17b] | fold | 3.43 |

###

Molecular target: human CB1 receptor (Homo sapiens, UniProt P21554)
Construct: host or cells: CHO-K1
Sequence (P21554 whole entry): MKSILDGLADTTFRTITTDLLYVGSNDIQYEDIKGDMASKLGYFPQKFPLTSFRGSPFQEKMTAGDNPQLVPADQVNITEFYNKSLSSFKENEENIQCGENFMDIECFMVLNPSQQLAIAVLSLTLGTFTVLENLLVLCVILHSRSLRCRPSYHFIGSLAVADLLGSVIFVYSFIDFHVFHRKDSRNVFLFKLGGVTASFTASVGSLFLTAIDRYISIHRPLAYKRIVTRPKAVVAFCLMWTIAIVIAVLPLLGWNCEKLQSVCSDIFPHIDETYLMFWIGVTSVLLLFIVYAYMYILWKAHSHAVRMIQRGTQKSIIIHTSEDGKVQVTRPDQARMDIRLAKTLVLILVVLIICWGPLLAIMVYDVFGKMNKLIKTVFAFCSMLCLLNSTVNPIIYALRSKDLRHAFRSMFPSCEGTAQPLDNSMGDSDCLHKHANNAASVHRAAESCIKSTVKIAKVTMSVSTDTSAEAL
Assay: PathHunter β-arrestin functional assay, CB1 receptor, antagonist mode
Format: cell-based

| compound | IC50 |
| --- | --- |
| CCCCCc1cc2c(c(O)c1-c1cc3ccccc3s1)[C@@H]1C=C(C)CC[C@H]1C(C)(C)O2 [Compound 36b] | ~3 µM |

###

Recorded IC50 for the following molecules
Molecular target: human CB1 receptor (Homo sapiens, UniProt P21554)
Construct: host or cells: CHO-K1
Assay: CB1 radioligand competitive binding assay ([3H]CP 55,940 displacement)
readout: IC50

| molecule | target.or.test.system | measurement |
| --- | --- | --- |
| CCCCCc1cc2c(c(O)c1-c1cn[nH]c1)[C@@H]1C=C(C)CC[C@H]1C(C)(C)O2 [Compound 35b] | human CB1 receptor (Homo sapiens, UniProt P21554) | > 1000 nM |
| CCCCCc1cc2c(c(O)c1-c1cc3ccccc3o1)[C@@H]1C=C(C)CC[C@H]1C(C)(C)O2 [Compound 34b] | human CB1 receptor (Homo sapiens, UniProt P21554) | 500 to 990 nM |
| CCCCCc1cc2c(c(O)c1-c1ccsc1)[C@@H]1C=C(C)CC[C@H]1C(C)(C)O2 [Compound 17b] | human CB1 receptor (Homo sapiens, UniProt P21554) | 100 to 490 nM |
| CCCCCc1cc2c(c(O)c1-c1cccnc1)[C@@H]1C=C(C)CC[C@H]1C(C)(C)O2 [Compound 12b] | human CB1 receptor (Homo sapiens, UniProt P21554) | 500 to 990 nM |
| CCCCCc1cc2c(c(O)c1-c1ccco1)[C@@H]1C=C(C)CC[C@H]1C(C)(C)O2 [Compound 15b] | human CB1 receptor (Homo sapiens, UniProt P21554) | < 100 nM |
| CCCCCc1cc2c(c(O)c1-c1cncnc1)[C@@H]1C=C(C)CC[C@H]1C(C)(C)O2 [Compound 13b] | human CB1 receptor (Homo sapiens, UniProt P21554) | > 1000 nM |
| CCCCCc1cc2c(c(O)c1-c1ccnn1C)[C@@H]1C=C(C)CC[C@H]1C(C)(C)O2 [Compound 33b] | human CB1 receptor (Homo sapiens, UniProt P21554) | 100 to 490 nM |
| CCCCCc1cc2c(c(O)c1-c1ccncc1)[C@@H]1C=C(C)CC[C@H]1C(C)(C)O2 [Compound 14b] | human CB1 receptor (Homo sapiens, UniProt P21554) | 100 to 490 nM |
| CCCCCc1cc2c(c(O)c1-c1cc3ccccc3s1)[C@@H]1C=C(C)CC[C@H]1C(C)(C)O2 [Compound 36b] | human CB1 receptor (Homo sapiens, UniProt P21554) | > 1000 nM |
| CCCCCc1cc2c(c(O)c1-c1cncs1)[C@@H]1C=C(C)CC[C@H]1C(C)(C)O2 [Compound 18b] | human CB1 receptor (Homo sapiens, UniProt P21554) | > 1000 nM |

Cited source for all entries: patent US20220242856A1
